target.system: hCMV UL128 + UL130 + UL131A (HEK293T co-transfectant) (hCMV, UniProt P16837 1-171; P16772 1-214)
Sequence (P16837 whole entry, chain 1 of 2): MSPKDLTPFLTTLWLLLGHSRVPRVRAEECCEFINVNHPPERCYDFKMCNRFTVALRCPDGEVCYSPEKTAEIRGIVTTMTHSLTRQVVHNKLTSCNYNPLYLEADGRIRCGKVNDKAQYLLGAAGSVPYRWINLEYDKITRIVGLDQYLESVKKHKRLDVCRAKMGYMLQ
Sequence (P16772 whole entry, chain 2 of 2): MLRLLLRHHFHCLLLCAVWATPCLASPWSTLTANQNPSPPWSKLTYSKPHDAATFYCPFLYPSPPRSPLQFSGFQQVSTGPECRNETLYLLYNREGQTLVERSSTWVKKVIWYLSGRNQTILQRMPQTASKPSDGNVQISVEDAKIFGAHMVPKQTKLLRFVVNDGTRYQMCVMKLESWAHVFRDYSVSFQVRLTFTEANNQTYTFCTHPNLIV
assay.overview: cell-based or functional assay
observation.type: 90% neutralization VR1814, ARPE (µg/mL)
Numbers only, in µg/mL.

Illustrative cases are given below, each with its answer.
Given 9I6 (antibody, V domains shown, human IgG; also called 9I6-biotin; 916) VH: EVQLVQSGAEVKKPGESLKISCRESGDTFPAYWIAWVRQMPGKGLEWMGIIYPIDSETTYSPSFQGQVTISADKSINTAYLQWSSLKASDSAIYYCARGTSTGLREAFHIWGQGTMVTVSS VL: DVVMTQSPLSLAVTLGQPAYISCRSSQSLGYSDGNTYLNWFQQRPGQSPRRLIYEVSNRDSGVPDRFSGSGSGTDFTLKISRVEAEDVGTYYCMQGTHWPPMCSFGQGTKLEIK , respond with its 90% neutralization VR1814, ARPE.
0.0007

Given 8J16 (antibody, V domains shown, human IgG; also called 8J16-biotin) VH: QVQLQESGPGLVKPSETLSLTCSVSGGFTSSYYWSWIRQAPGKGLEWIGYVYYGESTDYNPSLKSRATISIDTSKNQFSLKLSSVTAADTAVYYCAREVDKRGFDYWGQGALVTVSS VL: EIVLTQSPGTLSLSPGERATLSCRASQSVSGGYLAWYQQEPGQAPRLVIYGASSRATGIPDRFSASGSGTDFTLTITRLEPEDFAVYYCQQYGRTPLTFGGGTKVEIK , respond with its 90% neutralization VR1814, ARPE.
0.0008

Given 2C12 (antibody, V domains shown, human IgG; also called 2C12-biotin) VH: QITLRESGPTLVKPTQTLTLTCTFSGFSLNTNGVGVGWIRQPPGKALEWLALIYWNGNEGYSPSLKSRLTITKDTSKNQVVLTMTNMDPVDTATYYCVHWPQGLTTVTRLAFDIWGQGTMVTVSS VL: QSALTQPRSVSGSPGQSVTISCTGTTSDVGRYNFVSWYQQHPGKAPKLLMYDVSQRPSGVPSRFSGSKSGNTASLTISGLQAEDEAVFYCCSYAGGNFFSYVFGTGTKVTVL , respond with its 90% neutralization VR1814, ARPE.
0.006

Consider now this further binder.
Given 7B13 (antibody, V domains shown, human IgG) VH: QVQLVESGGGVVQPGGSLRLSCAASGFSFSNYGMHWVRQAPGKGLEWVALIPSDGNYQYYTDSVKGRFTVSRDNSRNTLYLQMKSLRAEDTARYHCAHLGGGLFDFWGQGTLVTVSS VL: QSALNQPRSVSGSPGQSVSISCTGSSSDVGGYEFVSWYQHHPGKAPKLIIYDVDKRPSGVPDRFSGSRSGDTASLTISGLQAEDEADYYCYSSADTWVFGGGTKLTVL , respond with its 90% neutralization VR1814, ARPE.
0.003

Where do the numbers come from? From patent US20170296650A1.
